assay: Clinical pharmacological trial: pharmacokinetics after single-dose edoxaban 15 mg in individuals with renal functional impairment; settings: human, in vivo, 15 mg, Cmax Geometric least squares mean, single-dose 15 mg; healthy adult (CLCR > 80 mL/min)
measure: Cmax (ng/mL)

molecule="CN1CCc2nc(C(=O)N[C@@H]3C[C@@H](C(=O)N(C)C)CC[C@@H]3NC(=O)C(=O)Nc3ccc(Cl)cn3)sc2C1 [edoxaban]" measure=Cmax recorded_number=88.8

---

test: Clinical pharmacological trial: pharmacokinetics after single-dose edoxaban 15 mg in individuals with renal functional impairment; conditions: human, in vivo, 15 mg, tmax Least squares mean, single-dose 15 mg; mild renal impairment (50 ≦ CLCR ≦ 80 mL/min)
measure: Tmax (h)

compound="CN1CCc2nc(C(=O)N[C@@H]3C[C@@H](C(=O)N(C)C)CC[C@@H]3NC(=O)C(=O)Nc3ccc(Cl)cn3)sc2C1 [edoxaban]" recorded_number=1.88
